SYSTEM NAME: Recombinant human PAI-1 (Homo sapiens)
Sequence (P05121 24-402): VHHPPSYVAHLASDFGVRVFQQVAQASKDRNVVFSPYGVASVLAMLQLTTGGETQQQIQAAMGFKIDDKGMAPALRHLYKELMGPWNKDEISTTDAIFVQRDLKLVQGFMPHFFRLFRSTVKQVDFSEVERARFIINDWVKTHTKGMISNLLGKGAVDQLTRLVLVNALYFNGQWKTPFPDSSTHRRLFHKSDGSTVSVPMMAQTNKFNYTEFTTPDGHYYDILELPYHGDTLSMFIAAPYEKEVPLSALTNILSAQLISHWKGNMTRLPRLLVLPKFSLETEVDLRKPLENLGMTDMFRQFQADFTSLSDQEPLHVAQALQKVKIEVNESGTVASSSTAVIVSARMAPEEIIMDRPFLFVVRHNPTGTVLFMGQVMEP
METHOD: Plasma clot lysis assay for testing of PAI-1 inhibitors
CONDITION DESCRIPTION: clot lysis in platelet-poor plasma (50%), PAI-1 10-13 ng/mL, t-PA 34 ng/mL, 37° C.; IC50 = concentration at which a halving of the clot lysis time was reached
Please provide measured IC50 for the entries that follow.
Give bare numbers, in µM.

CCCCCCc1n[nH]c2c(=O)n3c(c(-c4ccc(F)c(F)c4)c12)SC[C@H]3C(=O)O :: 50.1
CCCCCCc1n[nH]c2c(=O)n3c(c(-c4ccc(F)c(F)c4)c12)SC[C@H]3C(=O)NS(=O)(=O)c1ccccc1 :: 6.31
CCCc1n[nH]c2c(=O)n3c(c(-c4cccc(C(F)(F)F)c4)c12)SC[C@H]3C(=O)O :: 20
CCCCCc1n[nH]c2c(=O)n3c(c(-c4cccc(C(F)(F)F)c4)c12)SC[C@H]3C(=O)O :: 15.8
CC(C)Cc1n[nH]c2c(=O)n3c(c(-c4cccc(C(F)(F)F)c4)c12)SC[C@H]3C(=O)O :: 25.1

Look at each compound and report its IC50.
1. O=C(O)[C@@H]1CSc2c(-c3cccc(C(F)(F)F)c3)c3cn[nH]c3c(=O)n21
2. CCCCCCc1n[nH]c2c(=O)n3c(c(-c4cccc(C(F)(F)F)c4)c12)SC[C@H]3C(=O)O
3. CCn1nc(CC(C)C)c2c(-c3cccc(C(F)(F)F)c3)c3n(c(=O)c21)[C@H](C(=O)O)CS3

Result:
1. 25.1
2. 12.6
3. 79.4
